test: chemical genetic growth profiling, strain panel (AID 1159580);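 also: tested at 20 µM; growth read once vehicle control cultures reached saturation at 30 °C; 1 = growth at the plate median or of vehicle wells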; conditions: S. cerevisiae deletion strains, growth OD, locus YLR268W, strain sec22, stronger effect = lower value
In all, about 5,500 compounds went through this assay and about 2,000 (36%) were called active. Not shown: some 18% with an inconclusive outcome. The list shows a part of the results.
normalized growth strictly under 1 means Y; at 1 or over means N.

O=C(O)CCCCC1CCSS1 (stereo unspecified) : N
C1CCN2CC3CC(CN4CCCCC34)C2C1 (stereo unspecified) : Y
NCC(O)c1ccc(O)cc1 (stereo unspecified) : Y
Nc1ncnc2c1ncn2C1C[C@H](O)[C@@H](CO)O1 (stereo partly specified) : N
O=c1[nH]c(=O)n(C2C[C@@H](O)[C@@H](CO)O2)cc1F (stereo partly specified) : N
NC(=NCCC[C@H](N)C(=O)O)NC(CCC(=O)O)C(=O)O (stereo partly specified) : N

Asked: Hello, is normalized growth of the following compound strictly smaller than 1? CC1(C)C(=O)C=C[C@@]2(C)C1=C(O)C(=O)[C@]1(C)C2CC[C@@]2(C)[C@H](c3ccoc3)C[C@H]3O[C@]321 (stereo partly specified)
Given back: Y

Asked: Hello, is normalized growth of the following compound strictly smaller than 1? O=C(O[C@@H]1Cc2c(O)cc(O)cc2O[C@@H]1c1cc(O)c(O)c(O)c1-c1c([C@H]2Oc3cc(O)cc(O)c3C[C@H]2O)cc(O)c(O)c1O)c1cc(O)c(O)c(O)c1
Given back: Y

Asked: Hello, is normalized growth of the following compound strictly smaller than 1? COc1cc2c(c(OC)c1OC)-c1ccc(O)c(=O)cc1[C@@H](NC(C)=O)CC2
Given back: Y

Asked: Hello, is normalized growth of the following compound strictly smaller than 1? CC1(C)C(C(Cl)Cl)C2(Cl)C(Cl)C(Cl)C1(Cl)C2(Cl)Cl (stereo unspecified)
Given back: Y

Asked: Hello, is normalized growth of the following compound strictly smaller than 1? CCCCC1=NC2(CCCC2)C(=O)N1Cc1ccc(-c2ccccc2-c2nn[nH]n2)cc1
Given back: N

Asked: Hello, is normalized growth of the following compound strictly smaller than 1? Oc1c(I)cc(I)c2cccnc12
Given back: Y

Asked: Hello, is normalized growth of the following compound strictly smaller than 1? C/C=C/c1ccc2c(c1)OCO2
Given back: N

Asked: Hello, is normalized growth of the following compound strictly smaller than 1? CC(C)(C)NC[C@@H](O)COc1nsnc1N1CCOCC1
Given back: Y

Asked: Hello, is normalized growth of the following compound strictly smaller than 1? NC[C@H](O)c1ccc(O)c(O)c1
Given back: N

Asked: Hello, is normalized growth of the following compound strictly smaller than 1? O=C1O[C@H](C(O)CO)C(O)=C1O (stereo partly specified)
Given back: Y

Asked: Hello, is normalized growth of the following compound strictly smaller than 1? CO[C@H]1/C=C/O[C@@]2(C)Oc3c(C)c(O)c4c(O)c(c(/C=N/N5CCN(C)CC5)c(O)c4c3C2=O)NC(=O)/C(C)=C\C=C\C(C)[C@H](O)[C@@H](C)[C@@H](O)[C@@H](C)[C@@H](OC(C)=O)[C@@H]1C (stereo partly specified)
Given back: N

Asked: Hello, is normalized growth of the following compound strictly smaller than 1? Nc1ccc(S(=O)(=O)Nc2ccccn2)cc1
Given back: Y

Asked: Hello, is normalized growth of the following compound strictly smaller than 1? COC(C)(C)CCC[C@H](C)C/C=C/C(C)=C/C(=O)OC(C)C
Given back: N

Asked: Hello, is normalized growth of the following compound strictly smaller than 1? CC(=O)Oc1ccc(Cl)c2cccnc12
Given back: Y

Asked: Hello, is normalized growth of the following compound strictly smaller than 1? O=C(O)c1ccccc1Nc1cccc(C(F)(F)F)c1
Given back: Y

Asked: Hello, is normalized growth of the following compound strictly smaller than 1? CC/C(=C(\c1ccccc1)c1ccc(OCCN(C)C)cc1)c1ccccc1
Given back: Y

###

test: chemical genetic growth profiling, strain panel (AID 1159580); settings: S. cerevisiae deletion strains, growth OD, locus YGR229C, strain SMI1
In all, about 5,500 compounds went through this assay and about 2,000 (36%) were called active. About 18% were inconclusive and are not listed. Cut-off read from the data, not from the text of the source: active = normalized growth mostly below about 0.91 (no sharp cut-off); inconclusive = no clear call, values can overlap the other calls; inactive = mostly above about 0.92. Some of the results follow.
The reply should be one of these categories: true for active, false for inactive

Recorded results for 6 compounds are shown here.
OC[C@@H](O)[C@@H](O[C@@H]1O[C@H](CO)[C@@H](O)[C@H](O)[C@H]1O)[C@H](O)[C@@H](O)CO : false
O=C(O)CCCC[C@@H]1CCSS1 : false
COC(C)(C)CCC[C@H](C)C/C=C/C(C)=C/C(=O)OC(C)C : false
CC(C)(C)C(=O)NC(=S)Nc1cccc(C(F)(F)F)c1 : false
CC(=O)Nc1ccc(S(=O)(=O)Nc2ccc([N+](=O)[O-])cc2)cc1 : false
C=C(C)C1CC=C(C(=O)O)CC1 (centres undefined) : false

Asked: Could you kindly confirm the outcome this assay logged for COc1cc2c(c(OC)c1OC)-c1ccc(OC)c(=O)cc1C(NC(C)=O)CC2 (centres undefined) ?
Given back: false

Asked: Could you kindly confirm the outcome this assay logged for Cc1ccsc1/C=C/C1=NCCCN1C ?
Given back: false

Asked: Could you kindly confirm the outcome this assay logged for c1ccc2c(c1)cc1ccc3cccc4ccc2c1c34 ?
Given back: false

Asked: Could you kindly confirm the outcome this assay logged for COC(=O)c1cc(OC)c(OC)cc1-n1c(C)ccc1C ?
Given back: false

###

assay: chemical genetic growth profiling, strain panel (AID 1159580);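 also: tested at 20 µM; growth read once vehicle control cultures reached saturation at 30 °C; 1 = growth at the plate median or of vehicle wells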; conditions: S. cerevisiae deletion strains, growth OD, locus YMR125W, strain sto1
Hit rate of the full screen: of about 5,500 compounds, about 2,000 (36%) were called active. Roughly 18% stayed inconclusive and do not appear here. No stated cut-off is given here; in the data, active means normalized growth mostly below about 0.91 (no sharp cut-off); inconclusive means no clear call, values can overlap the other calls; inactive means mostly above about 0.92. Some of the results follow.
The reply should be one of these categories: active, inactive

CC(=O)NCCCCCC(=O)O : inactive
Cc1c(O)c(O)cc2c1CC=C1[C@@]2(C)CC[C@@]2(C)C3C[C@](C)(C(=O)O)CC[C@]3(C)CC[C@]12C (some centres not stated) : active
C=C(NC(=O)C(=C)NC(=O)c1csc(C2=NC3c4csc(n4)C4NC(=O)c5csc(n5)C(C(C)(O)C(C)O)NC(=O)C5CSC(=N5)C(=CC)NC(=O)C(C(C)O)NC(=O)c5csc(n5)C3(CC2)NC(=O)C(C)NC(=O)C(=C)NC(=O)C(C)NC(=O)C(C(C)CC)NC2C=Cc3c(C(C)O)cc(nc3C2O)C(=O)OC4C)n1)C(N)=O (configuration not stated) : inactive
C[C@H](N)[C@H](O)c1ccc(O)c(O)c1 : inactive
O=C1C=CC2=C3c4cc(O)c(O)cc4C[C@@]3(O)COC2=C1 : inactive

Then there is this molecule:
Asked: Could you kindly confirm the outcome this assay logged for Nc1ncnc2c1ncn2C1C[C@H](O)[C@@H](CO)O1 (some centres not stated) ?
Given back: inactive

###

test: chemical genetic growth profiling, strain panel (AID 1159580);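 also: tested at 20 µM; growth read once vehicle control cultures reached saturation at 30 °C; 1 = growth at the plate median or of vehicle wells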; conditions: S. cerevisiae deletion strains, growth OD, locus YCL061C, strain MRC1 (second series)
Out of some 5,500 compounds screened, about 2,000 (36%) were called active. About 18% were inconclusive and are not listed. No stated cut-off is given here; in the data, active means normalized growth mostly below about 0.91 (no sharp cut-off); inconclusive means no clear call, values can overlap the other calls; inactive means mostly above about 0.92. This is one part of the list.
The reply should be one of these categories: yes (active), no (inactive)

NCC(CP(=O)(O)O)c1ccc(Cl)cc1 (stereo not given) : no
C=C(C)C1CC=C(C(=O)O)CC1 (stereo not given) : no
N=c1c[n+](N2CCOCC2)[n-]o1 : no

Asked: Could you kindly confirm the outcome this assay logged for O=C(O)CCCC[C@@H]1CCSS1 ?
Given back: no

Asked: Could you kindly confirm the outcome this assay logged for C[C@H](Cc1ccc(O)c(O)c1)[C@@H](C)Cc1ccc(O)c(O)c1 ?
Given back: yes

###

assay: chemical genetic growth profiling, strain panel (AID 1159580);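 also: tested at 20 µM; growth read once vehicle control cultures reached saturation at 30 °C; 1 = growth at the plate median or of vehicle wells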; conditions: S. cerevisiae deletion strains, growth OD, locus YNL233W, strain BNI4, stronger effect = lower value
About 2,000 (36%) of roughly 5,500 compounds were called active. Another 18% or so got no clear call; they are omitted. Some of the results follow.
OBSERVATION_TYPE: normalized growth
Reply with just the number.

Some solved entries appear below for comparison.
CC(C)=CCC[C@](C)(O)C1CC=C(C)CC1 (stereo not given in full) : 1.04
Oc1c(Cl)cc(Cl)c2cccnc12 : 0.0545
CCCCC(CC)CN1CN(CC(CC)CCCC)CC(C)(N)C1 (stereo not given) : 0.26
C=C(CC)C(=O)c1ccc(OCC(=O)O)c(Cl)c1Cl : 0.988
C=C[C@](C)(O)CCC=C(C)C : 1

For record CC(=O)NCCCCCC(=O)O the listed normalized growth is 1.03

For record CCCC(C)C1(CC)C(=O)NC(=O)NC1=O (stereo not given) the listed normalized growth is 1.01

For record COC(=O)C[C@H]1C(C)(C)C(=O)[C@@H]2CC3=C4CC(=O)O[C@@H](c5ccoc5)[C@]4(C)CCC3[C@@]1(C)C2=O (stereo not given in full) the listed normalized growth is 1.03

For record C=CCC1(C(C)CCC)C(=O)N=C(S)NC1=O (stereo not given) the listed normalized growth is 1.03

For record O=C(O)CF the listed normalized growth is 1.02
